conditions: in isopropanol, 313.15 K
Measurement Name: solubility (mole fraction)
API note: the answer field is a bare number with no unit suffix.

Using the record for "COc1cc(/C=C/C(=O)O)cc(OC)c1O" , state its measured solubility (mole fraction). 0.00245

* * *

settings: in ethyl acetate, 313.15 K
Measurement Name: solubility (mole fraction)
API note: the answer field is a bare number with no unit suffix.

Using the record for "COc1cc(/C=C/C(=O)O)cc(OC)c1O" , state its measured solubility (mole fraction). 0.00935

* * *

details: in propylene glycol, 318.15 K
Measurement Name: solubility (mole fraction)
API note: the answer field is a bare number with no unit suffix.

Using the record for "COc1cc(/C=C/C(=O)O)cc(OC)c1O" , state its measured solubility (mole fraction). 0.00811

* * *

details: in ethanol, 298.15 K
Measurement Name: solubility (mole fraction)
API note: the answer field is a bare number with no unit suffix.

Using the record for "COc1cc(/C=C/C(=O)O)cc(OC)c1O" , state its measured solubility (mole fraction). 0.012

* * *

settings: in water, 318.15 K
Measurement Name: solubility (mole fraction)

Using the record for "COc1cc(/C=C/C(=O)O)cc(OC)c1O" , state its measured solubility (mole fraction). 0.000188

* * *

settings: in water, 313.15 K
Measurement Name: solubility (mole fraction)
API note: the answer field is a bare number with no unit suffix.

Using the record for "COc1cc(/C=C/C(=O)O)cc(OC)c1O" , state its measured solubility (mole fraction). 0.000146

* * *

conditions: in sec-butanol, 313.15 K
Measurement Name: solubility (mole fraction)

Using the record for "COc1cc(/C=C/C(=O)O)cc(OC)c1O" , state its measured solubility (mole fraction). 0.00663

* * *

settings: in ethyl acetate, 308.15 K
Measurement Name: solubility (mole fraction)
API note: the answer field is a bare number with no unit suffix.

Using the record for "COc1cc(/C=C/C(=O)O)cc(OC)c1O" , state its measured solubility (mole fraction). 0.00764

* * *

settings: in ethylene glycol, 308.15 K
Measurement Name: solubility (mole fraction)
API note: the answer field is a bare number with no unit suffix.

Using the record for "COc1cc(/C=C/C(=O)O)cc(OC)c1O" , state its measured solubility (mole fraction). 0.00748

* * *

settings: in ethylene glycol, 298.15 K
Measurement Name: solubility (mole fraction)
API note: the answer field is a bare number with no unit suffix.

Using the record for "COc1cc(/C=C/C(=O)O)cc(OC)c1O" , state its measured solubility (mole fraction). 0.0059

* * *

details: in ethyl acetate, 303.15 K
Measurement Name: solubility (mole fraction)
API note: the answer field is a bare number with no unit suffix.

Using the record for "COc1cc(/C=C/C(=O)O)cc(OC)c1O" , state its measured solubility (mole fraction). 0.00627

* * *

settings: in DMSO, 318.15 K
Measurement Name: solubility (mole fraction)
API note: the answer field is a bare number with no unit suffix.

Using the record for "COc1cc(/C=C/C(=O)O)cc(OC)c1O" , state its measured solubility (mole fraction). 0.159

* * *

settings: in propylene glycol, 303.15 K
Measurement Name: solubility (mole fraction)
API note: the answer field is a bare number with no unit suffix.

Using the record for "COc1cc(/C=C/C(=O)O)cc(OC)c1O" , state its measured solubility (mole fraction). 0.0053

* * *

conditions: in ethylene glycol, 318.15 K
Measurement Name: solubility (mole fraction)
API note: the answer field is a bare number with no unit suffix.

Using the record for "COc1cc(/C=C/C(=O)O)cc(OC)c1O" , state its measured solubility (mole fraction). 0.00934

Reference source: BigSolDB 2.1
